# Lookup of reported % Relative Immunoreactivity in comparison to Pep2 (232A) keyed by entry
Tested on: antibodies to HCV
Assay: NS-1 peptide ELISA, early and late HCV infection panels
Format: binding, human
Settings: Early HCV Infection panel, n = 9
Please give a number only; it is taken to be in %.

# sequence.chain, endpoint.value
rows = [
    ("VGGVEHRLEAACNWTRGERCDLEDRDRSELS [234B]", 13.2),
    ("RPYCWHYPPKPCGIVPAKSVCGPVYC [231A]", 46.8),
    ("SWGENDTDVFVLNNTRPPLGNWFGCTWMNSTGFTKVCGAPPC [232C]", 21.7),
    ("CPERLASCRPLTDFDQGWGPISYANGSGPDQRPYCWHYPPKPCGIVPAKSVCGPVYC [231E]", 70.9),
    ("CRPLTDFDQGWGPISYANGSGPDQRPYCWHYPPKPCGIVPAKSVC [241B]", 32.7),
]

Exercise: Query (sequence): CPERLASCRPLTDFDQGWGPISYANGSGPDQRPYCWHYPPKPCGIVPAKSVC [241C] ; field requested: % Relative Immunoreactivity in comparison to Pep2 (232A)
Solution: 44.7

Exercise: Query (sequence): EAACNWTRGERCDLEDRDRSELS [234A] ; field requested: % Relative Immunoreactivity in comparison to Pep2 (232A)
Solution: 9.5

Exercise: Query (sequence): CRPLTDFDQGWGPISYANGSGPDQRPYCWHYPPKPCGIVPAKSVCGPVYC [231D] ; field requested: % Relative Immunoreactivity in comparison to Pep2 (232A)
Solution: 23.3

Exercise: Query (sequence): DRSGAPTYSWGENDTDVFVLNNTRPPLGNWFGCTWMNSTGFTKVCGAPPC [232D] ; field requested: % Relative Immunoreactivity in comparison to Pep2 (232A)
Solution: 50.0

Exercise: Query (sequence): QGWGPISYANGSGPDQRPYCWHYPPKPCGIVPAKSVC [241A] ; field requested: % Relative Immunoreactivity in comparison to Pep2 (232A)
Solution: 23.9

Exercise: Query (sequence): QGWGPISYANGSGPDQRPYCWHYPPKPCGIVPAKSVCGPVYC [231C] ; field requested: % Relative Immunoreactivity in comparison to Pep2 (232A)
Solution: 88.6

Exercise: Query (sequence): TIFKIRMYVGGVEHRLEAACNWTRGERCDLEDRDRSELS [234C] ; field requested: % Relative Immunoreactivity in comparison to Pep2 (232A)
Solution: 12.1

Exercise: Query (sequence): LHCPTDCFRKHPDATYSRCGSGPWITPRCLVDYPYRLWHWPC [233C] ; field requested: % Relative Immunoreactivity in comparison to Pep2 (232A)
Solution: 9.9

Exercise: Query (sequence): VFVLNNTRPPLGNWFGCTWMNSTGFTKVCGAPPC [232B] ; field requested: % Relative Immunoreactivity in comparison to Pep2 (232A)
Solution: 91.4

Exercise: Query (sequence): ANGSGPDQRPYCWHYPPKPCGIVPAKSVCGPVYC [231B] ; field requested: % Relative Immunoreactivity in comparison to Pep2 (232A)
Solution: 30.9
